Target Entity: BDNF/NT-3 growth factors receptor (Homo sapiens) (UniProt Q16620);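 further: each value is a mean percent inhibition of TrkB kinase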
Sequence (Q16620 32-822 limits assumed): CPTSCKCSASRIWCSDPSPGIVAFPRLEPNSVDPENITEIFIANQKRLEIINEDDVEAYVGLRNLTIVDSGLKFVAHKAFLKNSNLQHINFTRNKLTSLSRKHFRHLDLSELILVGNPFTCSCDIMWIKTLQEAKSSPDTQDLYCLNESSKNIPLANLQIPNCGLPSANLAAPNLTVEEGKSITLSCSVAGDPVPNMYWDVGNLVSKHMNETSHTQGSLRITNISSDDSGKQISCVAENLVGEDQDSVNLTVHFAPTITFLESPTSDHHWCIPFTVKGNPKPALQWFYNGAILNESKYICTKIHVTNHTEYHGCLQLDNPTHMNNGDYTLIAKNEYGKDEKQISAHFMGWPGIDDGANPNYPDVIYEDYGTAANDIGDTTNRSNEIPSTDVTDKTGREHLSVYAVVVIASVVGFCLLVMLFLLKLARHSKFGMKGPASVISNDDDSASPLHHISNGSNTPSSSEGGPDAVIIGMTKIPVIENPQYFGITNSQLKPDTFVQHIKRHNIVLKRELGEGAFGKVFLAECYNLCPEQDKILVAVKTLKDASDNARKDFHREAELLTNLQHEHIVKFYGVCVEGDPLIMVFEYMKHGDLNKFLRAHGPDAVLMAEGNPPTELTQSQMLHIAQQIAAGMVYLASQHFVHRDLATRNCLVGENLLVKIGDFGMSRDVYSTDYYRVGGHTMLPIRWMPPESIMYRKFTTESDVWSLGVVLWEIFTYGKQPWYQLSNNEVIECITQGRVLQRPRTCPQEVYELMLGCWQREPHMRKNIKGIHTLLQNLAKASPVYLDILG
Details: at 0.1 µM
Quantity Name: inhibition (%)
Give bare numbers, in %.

Some solved cases for reference:
Molecule	inhibition [%]
NS(=O)(=O)c1ccc(N/N=C2\C(=O)Nc3ccc(-c4cnco4)cc32)cc1	9.38
CS(=O)(=O)CCNCc1ccc(-c2ccc3ncnc(Nc4ccc(OCc5ccccc5)c(Br)c4)c3c2)o1	3
O=C(Nc1n[nH]c2nc(-c3ccco3)ccc12)C1CC1	0.95
Fc1ccc(-c2c(-c3ccncc3)nc3n2CCS3)cc1	1.79
COc1cccc(-n2cnc3c(N/N=C/c4ccncc4)ncnc32)c1	0.22
NC(=O)c1cc(-c2ccc(F)cc2)cc(-c2ccncc2)c1N	3.69
Fc1ccc(-c2nc3n(c2-c2ccncc2)CCS3)cc1	2.62
NS(=O)(=O)c1ccc(Nc2cc(-c3ccc(O)c(F)c3)n[nH]2)cc1	6.06
O=C(NCC1CC1)c1ccc(-c2cccc(C(=O)NC3CC3)c2)cc1	0.56
CN(C)c1ccc2c(c1)/C(=C/Nc1ccc(S(N)(=O)=O)cc1)C(=O)N2	15.4

// each molecule listed below needs its inhibition
1. NC(=O)Cc1ccccc1Oc1nccc(-c2c(-c3ccc(F)cc3)ncn2C2CCNCC2)n1
2. FC(F)(F)c1cccc(Nc2nccc(-c3cnn4nc(-c5ccccc5)ccc34)n2)c1
3. O=C1Nc2ccccc2/C1=C/Nc1ccc(-n2cncn2)cc1
4. CCc1cccc(CC)c1/C=C/c1cncc(C(=O)NC)c1
5. N#Cc1ccc(Oc2nccc(-c3c(-c4ccc(F)cc4)ncn3C3CCNCC3)n2)cc1

Response:
1. 0.02
2. 0.37
3. 11.7
4. 1.04
5. 2.91

----------
Exercise: for every item that follows, state its recorded inhibition.
Target Entity: Ephrin type-B receptor 4 (Homo sapiens) (UniProt P54760);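 further: reported value is the mean percent inhibition of EPHB4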
Sequence (P54760 whole entry): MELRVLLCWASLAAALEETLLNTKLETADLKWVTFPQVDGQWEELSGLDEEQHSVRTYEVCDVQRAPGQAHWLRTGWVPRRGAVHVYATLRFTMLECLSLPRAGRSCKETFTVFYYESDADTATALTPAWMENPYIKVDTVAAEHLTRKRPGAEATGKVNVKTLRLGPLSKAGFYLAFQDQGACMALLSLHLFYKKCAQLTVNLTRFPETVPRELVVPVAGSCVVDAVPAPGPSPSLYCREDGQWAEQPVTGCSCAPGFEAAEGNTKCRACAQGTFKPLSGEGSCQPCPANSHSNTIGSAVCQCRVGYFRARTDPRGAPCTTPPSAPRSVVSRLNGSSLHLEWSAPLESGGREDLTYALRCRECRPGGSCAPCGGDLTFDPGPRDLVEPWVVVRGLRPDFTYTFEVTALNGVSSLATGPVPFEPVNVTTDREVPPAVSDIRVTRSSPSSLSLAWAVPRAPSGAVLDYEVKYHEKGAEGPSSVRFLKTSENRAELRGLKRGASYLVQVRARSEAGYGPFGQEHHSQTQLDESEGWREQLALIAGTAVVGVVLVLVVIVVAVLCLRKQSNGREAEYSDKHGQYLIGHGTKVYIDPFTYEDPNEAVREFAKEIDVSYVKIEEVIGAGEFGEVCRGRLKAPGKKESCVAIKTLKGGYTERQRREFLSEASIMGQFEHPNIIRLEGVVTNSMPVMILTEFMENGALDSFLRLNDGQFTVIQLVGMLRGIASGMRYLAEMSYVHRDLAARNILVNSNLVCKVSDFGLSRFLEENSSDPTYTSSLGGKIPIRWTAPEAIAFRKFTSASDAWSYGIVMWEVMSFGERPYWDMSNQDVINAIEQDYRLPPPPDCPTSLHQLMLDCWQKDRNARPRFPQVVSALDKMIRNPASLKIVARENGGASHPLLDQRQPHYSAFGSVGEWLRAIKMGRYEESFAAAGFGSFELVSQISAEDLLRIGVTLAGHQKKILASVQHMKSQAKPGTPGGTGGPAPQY
Details: at 1 µM
Numbers only, in %.

Some solved cases for reference:
Compound	inhibition / %
O=C1Nc2ccc(I)cc2C1=Cc1cc(Br)c(O)c(Br)c1	4.33
COc1ccc2cc(-c3c(-c4ccncc4)nc(-c4ccc([S+](C)[O-])cc4C)n3C)ccc2c1 (stereo not given)	22.5
Nc1nccc(-c2c(-c3ccc(F)cc3)ncn2C2CCC(O)CC2)n1 (stereo not given)	14.7
CN(c1ccc(NC(=O)Nc2c(Cl)cccc2Cl)cc1)c1ccnc(Nc2cccc(CS(C)(=O)=O)c2)n1	8.72
NC(=O)Cc1ccccc1Oc1nccc(-c2c(-c3ccc(F)cc3)ncn2C2CCNCC2)n1	2.09

// each compound listed below needs its inhibition
1. O=C1NC(=O)C(c2cccc(Cl)c2)=C1Nc1ccc(Cl)c(C(=O)O)c1
2. CS(=O)(=O)CCNCc1ccc(-c2ccc3ncnc(Nc4ccc(OCc5ccccc5)c(Br)c4)c3c2)o1

Response:
1: 0.05; 2: -0.22

// each compound listed below needs its inhibition
1. NCc1ccc(-n2c(-c3nonc3N)nc3cnccc32)cc1
2. NC(=O)c1cc(-c2ccncc2)cc(-c2ccccc2)c1N

Response:
[1.42, 36]

Request: Entry under review: O=C(Nc1n[nH]c2nc(-c3ccc(O)cc3)c(Br)cc12)C1CC1 . Reported inhibition?
Response: 28.8

----------
Target Entity: Casein kinase I isoform gamma-2 (Homo sapiens);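 further: values are mean inhibition figures reported as part of the GSK PKIS dataset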
Details: at 0.1 µM
Exercise: for every item that follows, state its recorded inhibition.
Numbers only, in %.

Some solved cases for reference:
Compound	inhibition (%)
Cc1ccc(NC(=O)c2ccoc2)cc1-c1ccc(C(=O)NCC2CC2)cc1	2.62
COc1cc(C)c(N(C)C(=O)CN(C)C)cc1Nc1nc(Nc2cccc(F)c2C(N)=O)c2cc[nH]c2n1	-2.38
CS(=O)(=O)CCNCc1cc(-c2cc3c(Nc4ccc(OCc5cccc(F)c5)c(Cl)c4)ncnc3s2)cs1	3.23

// each compound listed below needs its inhibition
1. Cc1nnc(-c2ccc(C)c(-c3ccc(C(=O)NCc4ccc(Cl)cc4)cc3)c2)o1
2. CCS(=O)(=O)c1ccc(OC)c(Nc2ncc(-c3ccccc3Cl)o2)c1
3. COc1ccc(-c2ccc3c(NC(=O)C4CC4)n[nH]c3n2)cc1
4. CCN(CC)Cc1ccc(Nc2nccc(-c3cnn4ncccc34)n2)cc1
5. COc1cc2ncn(-c3cc(OCc4cccs4)c(C(N)=O)s3)c2cc1OC
6. CCC(=O)Nc1ccc(C)c(-c2ccc(C(=O)NCC3CC3)cc2)c1
7. C[C@@H](Oc1cc(-n2cnc3ccc(OCC4CCN(C)CC4)cc32)sc1C(N)=O)c1ccccc1Cl

Response:
1. -1.05
2. 0.2
3. 1.99
4. 1.79
5. -1.54
6. 2.3
7. 5.69

----------
Target Entity: Serine/threonine-protein kinase 4 (Homo sapiens);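 further: mean inhibition of MST1, part of the GSK PKIS dataset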
Details: at 1 µM
Exercise: for every item that follows, state its recorded inhibition.
Answers are plain numbers, in %.

Compound	Target Entity	Measured Number
CCc1cccc(CC)c1/C=C/c1cncc(C(=O)NC)c1	Serine/threonine-protein kinase 4 (Homo sapiens)	5.19
C[C@@H](Oc1cc(-n2cnc3ccc(OCC4CCN(C)CC4)cc32)sc1C(N)=O)c1ccccc1Cl	Serine/threonine-protein kinase 4 (Homo sapiens)	56.7

// each compound listed below needs its inhibition
1. COc1cc(N2CCN(C(C)C)CC2)ccc1Nc1nc(Nc2ccc(F)cc2C(=O)NC[C@@H](O)CO)c2cc[nH]c2n1
2. c1ccc(Oc2ccc(Nc3ncc(-c4ccccc4)o3)cc2)cc1
3. NS(=O)(=O)c1ccc(Nc2cc(-c3ccc(O)c(F)c3)n[nH]2)cc1

Response:
1. 6.99
2. 1.83
3. 12.6

// each compound listed below needs its inhibition
1. COc1cccc(-n2cnc3c(N/N=C/c4ccncc4)ncnc32)c1
2. COc1ccc2cc(-c3c(-c4ccncc4)nc(-c4ccc([S+](C)[O-])cc4C)n3C)ccc2c1 (stereo not given)
3. COc1cc2ncn(-c3cc(OCc4ccccc4C(F)(F)F)c(C(C)=O)s3)c2cc1OC
4. C/C(Nc1ccc(S(N)(=O)=O)cc1)=C1/C(=O)Nc2ccccc21

Response:
1. 7.14
2. 7.66
3. 3.86
4. 55.3

Request: Entry under review: CCS(=O)(=O)c1ccc(OC)c(Nc2ncc(-c3ccccc3Cl)o2)c1 . Reported inhibition?
Response: 5.89

----------
Target Entity: cAMP-dependent protein kinase catalytic subunit PRKX (Homo sapiens);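 further: values are mean percent inhibition of PRKX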
Details: at 0.1 µM
Quantity Name: inhibition (%)
Numbers only, in %.

Chem Smiles	Measured Number
CN(C)CCCNc1nccc(-c2c(-c3ccc(F)cc3)nn3cc(C(F)(F)F)ccc23)n1	1.15

// each compound listed below needs its inhibition
1. O=C(Nc1n[nH]c2nc(-c3ccco3)ccc12)C1CC1
2. O=C1NC(=O)C(c2cccc(Cl)c2)=C1Nc1ccc(Cl)c(C(=O)O)c1
3. COc1cccc(-n2cnc3c(N/N=C/c4ccncc4)ncnc32)c1
4. CCS(=O)(=O)c1ccc(OC)c(Nc2ncc(-c3ccccc3Cl)o2)c1
5. COc1ccc(-c2ccc3c(NC(=O)C4CC4)n[nH]c3n2)cc1
6. CCC(=O)Nc1ccc(C)c(-c2ccc(C(=O)NCC3CC3)cc2)c1
7. O=C(Nc1n[nH]c2nc(-c3ccc(O)cc3)c(Br)cc12)C1CC1

Response:
1: 2.71; 2: 2.51; 3: 1.92; 4: 0.64; 5: 1.66; 6: 0.64; 7: 3.04

// each compound listed below needs its inhibition
1. C[C@@H](Oc1cc(-n2cnc3ccc(OC4CCN(C)CC4)cc32)sc1C(N)=O)c1ccccc1Cl
2. CCc1nccc2c1nc(-c1nonc1N)n2CC

Response:
1: 2.2; 2: -0.13

----------
Target Entity: Tyrosine-protein kinase Lyn (Homo sapiens);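 further: mean percent inhibition of the LYN A splice variant of the kinase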
Details: at 1 µM
Description: GSK_PKIS: LYN A (splice variant) mean inhibition at 1 uM [Nanosyn]
Parameter threshold = 9%. Response is true when inhibition meets or exceeds it, else false.

Chem Smiles	Target Entity	Group Label
CNC(=O)c1cncc(/C=C/c2c(C)cccc2C)c1	Tyrosine-protein kinase Lyn (Homo sapiens)	true
NC(=O)c1cc(-c2ccncc2)cc(-c2ccccc2)c1N	Tyrosine-protein kinase Lyn (Homo sapiens)	true
CN(C)CCCNc1nccc(-c2c(-c3ccc(F)cc3)nn3cc(C(F)(F)F)ccc23)n1	Tyrosine-protein kinase Lyn (Homo sapiens)	false
Fc1ccc(-c2ncn(C3CCNCC3)c2-c2ccnc(Oc3ccc4c(c3)OCO4)n2)cc1	Tyrosine-protein kinase Lyn (Homo sapiens)	false
CCS(=O)(=O)c1ccc(OC)c(Nc2ncc(-c3ccccc3Cl)o2)c1	Tyrosine-protein kinase Lyn (Homo sapiens)	true
CCS(=O)(=O)c1ccc(OC)c(Nc2ncc(-c3cccc(-c4ccccc4F)c3)o2)c1	Tyrosine-protein kinase Lyn (Homo sapiens)	true
O=C(NCC1CC1)c1ccc(-c2cccc(C(=O)NC3CC3)c2)cc1	Tyrosine-protein kinase Lyn (Homo sapiens)	false
CN(C)c1ccc2c(c1)/C(=C/Nc1ccc(S(N)(=O)=O)cc1)C(=O)N2	Tyrosine-protein kinase Lyn (Homo sapiens)	true

// switching to the query compound
Request: Reported inhibition reaches at least 9% for CS(=O)(=O)CCNCc1cc(-c2cc3c(Nc4ccc(OCc5cccc(F)c5)c(Cl)c4)ncnc3s2)cs1 ?
Response: false

----------
Test system: Epidermal growth factor receptor (Homo sapiens), P00533 [L858R,T790M]
Sequence (P00533 whole entry T790M/L858R, looked up): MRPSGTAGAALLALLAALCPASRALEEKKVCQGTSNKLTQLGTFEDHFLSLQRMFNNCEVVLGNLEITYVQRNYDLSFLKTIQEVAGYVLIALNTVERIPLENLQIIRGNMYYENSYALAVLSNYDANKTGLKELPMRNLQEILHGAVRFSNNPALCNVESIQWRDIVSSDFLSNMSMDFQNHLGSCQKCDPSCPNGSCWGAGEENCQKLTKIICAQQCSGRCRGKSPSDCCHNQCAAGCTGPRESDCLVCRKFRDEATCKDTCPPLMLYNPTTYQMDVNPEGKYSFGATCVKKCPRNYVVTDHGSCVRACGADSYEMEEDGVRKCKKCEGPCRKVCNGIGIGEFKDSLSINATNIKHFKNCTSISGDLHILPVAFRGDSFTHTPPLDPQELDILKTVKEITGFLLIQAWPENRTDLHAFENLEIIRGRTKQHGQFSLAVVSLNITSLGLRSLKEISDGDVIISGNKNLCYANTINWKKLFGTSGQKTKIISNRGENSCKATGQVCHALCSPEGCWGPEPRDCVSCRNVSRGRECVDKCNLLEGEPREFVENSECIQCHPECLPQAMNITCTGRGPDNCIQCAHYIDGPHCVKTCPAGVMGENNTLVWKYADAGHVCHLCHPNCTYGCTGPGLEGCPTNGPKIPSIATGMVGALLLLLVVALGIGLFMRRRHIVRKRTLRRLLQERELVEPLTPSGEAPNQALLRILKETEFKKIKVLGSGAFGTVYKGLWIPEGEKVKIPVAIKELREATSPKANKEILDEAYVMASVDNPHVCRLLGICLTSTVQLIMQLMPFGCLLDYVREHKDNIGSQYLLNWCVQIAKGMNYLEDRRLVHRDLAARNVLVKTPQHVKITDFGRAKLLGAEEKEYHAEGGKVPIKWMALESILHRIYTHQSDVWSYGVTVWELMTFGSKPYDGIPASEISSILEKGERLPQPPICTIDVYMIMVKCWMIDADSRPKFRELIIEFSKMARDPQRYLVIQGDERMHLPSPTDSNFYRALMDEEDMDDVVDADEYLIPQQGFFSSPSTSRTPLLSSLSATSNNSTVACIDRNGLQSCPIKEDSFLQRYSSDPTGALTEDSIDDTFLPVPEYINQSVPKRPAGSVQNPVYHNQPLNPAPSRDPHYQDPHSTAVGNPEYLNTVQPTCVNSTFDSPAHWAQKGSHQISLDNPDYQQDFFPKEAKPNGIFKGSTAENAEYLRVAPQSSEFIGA
Details: at 0.1 µM
Exercise: for every item that follows, state its recorded inhibition.
Numbers only, in %.

Some solved cases for reference:
Compound	Measured Number
COc1cc2ncn(-c3cc(OCc4ccccc4C(F)(F)F)c(C(C)=O)s3)c2cc1OC	-1.84
CCN(CC)Cc1ccc(Nc2nccc(-c3cnn4ncccc34)n2)cc1	0.05
COc1cc(C)c(N(C)C(=O)CN(C)C)cc1Nc1nc(Nc2cccc(F)c2C(N)=O)c2cc[nH]c2n1	-0.19
FC(F)(F)c1cccc(Nc2nccc(-c3cnn4nc(-c5ccccc5)ccc34)n2)c1	0.52
O=C(Nc1n[nH]c2cc(-c3cc(F)ccc3F)ccc12)C1CC1	3.1
Fc1ccc(-c2c(-c3ccncc3)nc3n2CCS3)cc1	2.41
COc1cc2ncn(-c3cc(OCCc4ccccc4)c(C(N)=O)s3)c2cc1OC	0.55
O=C(Nc1n[nH]c2cc(-c3ccccc3)ccc12)C1CC1	2.81

// each compound listed below needs its inhibition
1. C/C(Nc1ccc(S(N)(=O)=O)cc1)=C1/C(=O)Nc2ccccc21
2. COc1cc(N2CCN(C(C)C)CC2)ccc1Nc1nc(Nc2ccc(F)cc2C(=O)NC[C@@H](O)CO)c2cc[nH]c2n1
3. Fc1ccc(-c2ncn(C3CCNCC3)c2-c2ccnc(Oc3ccc4c(c3)OCO4)n2)cc1
4. Fc1ccc(-c2ncn(C3CCNCC3)c2-c2ccnc(Oc3ccc(F)c(F)c3)n2)cc1
5. CN(c1ccc(NC(=O)Nc2c(Cl)cccc2Cl)cc1)c1ccnc(Nc2cccc(CS(C)(=O)=O)c2)n1
6. N#Cc1ccc(Oc2nccc(-c3c(-c4ccc(F)cc4)ncn3C3CCNCC3)n2)cc1
7. COc1cccc(-n2cnc3c(N/N=C/c4ccncc4)ncnc32)c1

Response:
[-0.46, 11.9, 1.3, 2.65, 2.48, -0.53, -1.35]
